# Test system: NCI-H460 lung
# RUN DESCRIPTION: NCI tumour cell line growth inhibition, 48 h; in the data active = GI50 below about 0.43 µM; inactive = the rest
Pick from True (active), False (inactive) when you respond.

Lookup: Field: outcome | Entry: CCN(CC)c1cc2oc3cc(N)cc(=N)c-3nc2cc1C
Found: False

Lookup: Field: outcome | Entry: Nc1ccccc1SC1CC(=O)N(c2ccc(Cl)c(Cl)c2)C1=O (configuration not stated)
Found: False

Lookup: Field: outcome | Entry: COC(=O)CCC1=C(CC(=O)OC)C(C)=N/C1=C\c1[nH]c(-c2ccc[nH]2)cc1OC
Found: False

Lookup: Field: outcome | Entry: O=C(OCc1ccc2c(Cl)cc(Cl)c(O)c2n1)N1CCN(C(=O)c2cc3cc(F)ccc3[nH]2)CC1
Found: False

Lookup: Field: outcome | Entry: Cn1c(=O)c2c(ncn2CC(=O)Nc2ccc(-c3ccccc3)nn2)n(C)c1=O
Found: False
